This collection of values is drawn from PubChem BioAssay (NCI).

System: SW-620 colon
EXPERIMENT: NCI-60 one-dose screen, 48 h
CONDITION PARAMETERS: 10 µM unless noted
Compounds without any hit were thinned out: in the full panel of roughly 83,000, 20% have a hit. The source made the active and inactive calls. The calls were made as follows: active = growth percent below 10; inactive = the rest.
Please answer using one outcome listed in active, inactive

Worked cases, answers included:
COMPOUND | SUBJECT OF TEST | CLASS NAME
CN1CCN(CCS(=O)(=O)Nc2cc(-c3ccc4ncnc(Nc5ccc(F)c(Cl)c5)c4c3)cnc2Cl)CC1 | SW-620 colon | inactive
COc1ccccc1NC(=O)N/N=C/c1c[nH]c2ccccc12 | SW-620 colon | inactive
CN1C(=O)/C(=C/c2ccco2)S/C1=N/c1nccs1 | SW-620 colon | inactive
COc1ccc2c(c1)C(Sc1ccc(Cl)cc1)c1c(nc(N)c(C#N)c1N)O2 (stereo not given) | SW-620 colon | inactive
N#Cc1c(-c2ccc(F)cc2)nc(SCc2ccc(F)cc2)nc1N1CCNCC1 | SW-620 colon | active
Cn1cc(-c2cc(N)n3nc(-c4c[nH]c5ccccc45)cc3n2)c2cc(F)ccc21 | SW-620 colon | active
CCN1CCN(Cc2ccc(C(=O)Nc3cccc(Nc4ccc5c(OC)cccc5n4)c3)cc2C(F)(F)F)CC1 | SW-620 colon | active
CCc1ccccc1NC(=O)N/C(N)=N/c1nc2ccccc2s1 | SW-620 colon | inactive

Prompt line: Please indicate how the test categorized `CC(C)(C)c1cc(-c2cc(-c3ccccc3)[nH]c(=O)c2C#N)cc(C(C)(C)C)c1` .
Response line: inactive

Prompt line: Could you check what this test reported for `CCOc1ccccc1NC(=O)N/C(N)=N/c1nc2ccccc2s1` ?
Response line: inactive

----------
Tested on: HOP-92 NSCLC
EXPERIMENT: NCI-60 one-dose screen, 48 h (100 = growth as untreated, 0 = no growth, -100 = all killed)
CONDITION PARAMETERS: 10 µM unless noted
Description: Growth inhibition of the HOP-92 human Non-Small Cell Lung tumor cell line is measured as a screen for anti-cancer activity. Cells are grown in 96 well plates and exposed to the test compound for 48 hours. Compounds are tested at a single concentration, which is 10^-5 M for most compounds. The reported endpoint is percent growth (GI% or GIPRCNT), where numbers from 0 - 100% represent growth inhibition, and numbers from -100% - 0 represent cell death. […]
This is part of a sample that, as a whole, favours compounds with a hit. Of some 83,000 tested, about 20% had one in any assay.
Class field: derived from growth; ranges low group = under 10%, middle group = from 10% up to 60%, high group = 60% and over

MOLECULE | SUBJECT OF TEST | CLASS NAME
COc1c2c(c(Br)c3c1C(CCc1ccccc1)N(C)CC3)OCO2 (stereo not drawn) | HOP-92 NSCLC | middle group
O=C(Nc1ccc(-c2ccc3c(c2)NC(=O)/C3=C\c2ccc[nH]2)cc1)Nc1cccc(Cl)c1 | HOP-92 NSCLC | middle group

Prompt line: Hi, small favor: classify Cc1ccc(C2CC(c3ccc(NC(=O)Nc4ccccc4)cc3)=NN2c2ccc(S(N)(=O)=O)cc2)cc1 (stereo not drawn) by its growth when you get a moment.
Response line: low group

Prompt line: Categorize the following entry: `N#Cc1ccc(C(=O)CSc2nc3c(c(Nc4ccc(S(N)(=O)=O)cc4)n2)CCC3)cc1`
Response line: middle group

Prompt line: Category of `Cn1cc(-c2cc(N)n3nc(-c4c[nH]c5ccccc45)cc3n2)c2cc(Br)ccc21` :
Response line: low group
